Test: Log P by HPLC on reversed phase columns (EEC directive 79/831 Annex V.A8)
Type: physicochemical
Settings: method [a]
property measured: LogP

List the reported LogP of each compound below.
1. CCOC(=O)CNC(=O)c1sc(Cl)c(Br)c1F [1.0634]
2. CC(C)(C)OC(=O)C1(NC(=O)c2sc(Br)c(Br)c2F)CC(F)(F)C1 [1.0623]
3. CCOC(=O)C1(NC(=O)c2sc(Cl)c(Br)c2C#N)CCC1 [1.0630]
4. O=C(NC1(C(=O)OC2CCCCC2)CCC1)c1sc(Br)c(Br)c1F [1.0929]
5. COC(=O)[C@@H](CCSC)NC(=O)c1sc(Br)c(Br)c1F [1.0158]

Response:
1. 2.88^[a]
2. 4.46^[a]
3. 3.20^[a]
4. 5.28^[a]
5. 3.62^[a]
